assay: The drug is tested on Capnocytophaga ochracea strain: DSM7271 for biotransformation under microaerobic condition. The drug concentrations were measured over 6 timepoints collected between 0 and 12 hours of incubation by liquid-chromatography-coupled mass spectrometry (LC–MS); type: ADME; parameters: dose 5 uM, timepoint 0, 1.5, 3, 6, 9, 12 hours; details: 5 µM
parameter: Bacterial Biotransformation

C[C@]12C=CC(=O)C=C1CC[C@@H]1[C@@H]2C(=O)C[C@@]2(C)[C@H]1CC[C@]2(O)C(=O)CO: Compound NOT metabolized
C[C@H]1C[C@H]2[C@@H]3CCC4=CC(=O)C=C[C@]4(C)[C@@]3(F)[C@@H](O)C[C@]2(C)[C@@]1(O)C(=O)CO: Compound NOT metabolized
CNC(=C[N+](=O)[O-])NCCSCc1ccc(CN(C)C)o1: Compound NOT metabolized

The measured values listed here are drawn from ChEMBL document CHEMBL5724806.
